Below, each entry is listed with its recorded −H.
Test system: XGTAGCTAC
assay.comment: Dangling-end thermal denaturation, sequence XGTAGCTAC (Table 2)
Type: physicochemical
condition.description: marker c
readout: −H (kcal)

1) OC[C@H]1O[C@@H](c2c(F)c(F)c(F)c(F)c2F)C[C@@H]1O	56.5
2) OC[C@H]1O[C@@H](c2cc(F)c(F)c(F)c2F)C[C@@H]1O	57.0
3) OCC1OC(c2cc(F)c(F)cc2F)CC1O (stereo not shown)	72.5
4) OC[C@H]1O[C@@H](c2c(F)cc(F)cc2F)C[C@@H]1O	52.5

---

System: (dCGCGCG)2 core duplex
assay.comment: Dangling-end thermal denaturation, sequence XCGCGCG (Table 1)
Type: physicochemical
condition.description: XCGCGCG; Van't Hoff plots
Below, each entry is listed with its recorded −ΔG37.
readout: −ΔG37 (kcal)

1) OC[C@H]1O[C@@H](c2cc(F)c(F)c(F)c2F)C[C@@H]1O	10.3
2) OC[C@H]1OC(c2ccc(F)cc2)C[C@@H]1O (some centres unmarked)	10.3
3) OC[C@H]1O[C@@H](c2c(F)c(F)c(F)c(F)c2F)C[C@@H]1O	8.5
4) OC[C@H]1O[C@@H](c2c(F)cc(F)cc2F)C[C@@H]1O	8.4
5) OCC1OC(c2cc(F)c(F)cc2F)CC1O (centres unmarked)	10.1

---

Below, each entry is listed with its recorded −ΔH.
System: (dCGCGCG)2 core duplex
assay.comment: Dangling-end thermal denaturation, sequence XCGCGCG (Table 1)
Format: physicochemical
condition.description: XCGCGCG; Van't Hoff plots
readout: −ΔH (kcal)

1) OC[C@H]1O[C@@H](c2c(F)c(F)c(F)c(F)c2F)C[C@@H]1O	39.1
2) OC[C@H]1O[C@@H](c2cc(F)c(F)c(F)c2F)C[C@@H]1O	53.8
3) OC[C@H]1OC(c2ccc(F)cc2)C[C@@H]1O (some centres unmarked)	64.9
4) OC[C@H]1O[C@@H](c2c(F)cc(F)cc2F)C[C@@H]1O	37.3
5) OCC1OC(c2cc(F)c(F)cc2F)CC1O (centres unmarked)	55.0

---

Test system: XACAGCTGT
assay.comment: Dangling-end thermal denaturation, sequence XACAGCTGT (Table 1)
Format: physicochemical
condition.description: Van't Hoff plots
Tag: label 1 if measured −ΔH is not below 70 kcal, label 0 if it is.

1. OC[C@H]1OC(c2ccc(F)cc2)C[C@@H]1O (some centres unmarked)	label 0
2. OC[C@H]1O[C@@H](c2cc(F)c(F)c(F)c2F)C[C@@H]1O	label 1
3. OC[C@H]1O[C@@H](c2c(F)c(F)c(F)c(F)c2F)C[C@@H]1O	label 0
4. OC[C@H]1O[C@@H](c2c(F)cc(F)cc2F)C[C@@H]1O	label 0
5. OCC1OC(c2cc(F)c(F)cc2F)CC1O (centres unmarked)	label 0

---

Test system: XTGAGCTCA
assay.comment: Dangling-end thermal denaturation, sequence XTGAGCTCA (Table 2)
Type: physicochemical
condition.description: marker c
Below, each entry is listed with its recorded −S.
readout: −S

1. OC[C@H]1O[C@@H](c2c(F)c(F)c(F)c(F)c2F)C[C@@H]1O	128 eu
2. OC[C@H]1O[C@@H](c2c(F)cc(F)cc2F)C[C@@H]1O	122 eu
3. OCC1OC(c2cc(F)c(F)cc2F)CC1O (stereo not shown)	144 eu
4. OC[C@H]1O[C@@H](c2cc(F)c(F)c(F)c2F)C[C@@H]1O	138 eu

---

Tested on: XTGAGCTCA
assay.comment: Dangling-end thermal denaturation, sequence XTGAGCTCA (Table 2)
Type: physicochemical
condition.description: marker d
readout: −G37 (kcal)

1) OCC1OC(c2cc(F)c(F)cc2F)CC1O (stereo not shown) [2,4,5-trifluorophenyl]	9.1
2) OC[C@H]1O[C@@H](c2c(F)c(F)c(F)c(F)c2F)C[C@@H]1O [pentafluorophenyl]	8.9
3) OC[C@H]1O[C@@H](c2c(F)cc(F)cc2F)C[C@@H]1O [2,4,6-trifluorophenyl]	9.0
4) OC[C@H]1O[C@@H](c2cc(F)c(F)c(F)c2F)C[C@@H]1O [2,3,4,5-tetrafluorophenyl]	9.2

---

Tested on: (dCGCGCG)2 core duplex
assay.comment: Dangling-end thermal denaturation, sequence XCGCGCG (Table 1)
Assay type: physicochemical
condition.description: XCGCGCG; average from fits to individual melting curves
readout: −ΔG37 (kcal)

1. OCC1OC(c2cc(F)c(F)cc2F)CC1O (centres unmarked)	10.0
2. OC[C@H]1OC(c2ccc(F)cc2)C[C@@H]1O (some centres unmarked)	9.9
3. OC[C@H]1O[C@@H](c2c(F)c(F)c(F)c(F)c2F)C[C@@H]1O	8.7
4. OC[C@H]1O[C@@H](c2cc(F)c(F)c(F)c2F)C[C@@H]1O	10.2
5. OC[C@H]1O[C@@H](c2c(F)cc(F)cc2F)C[C@@H]1O	8.6

---

System: (dCGCGCG)2 core duplex
assay.comment: Dangling-end thermal denaturation, sequence XCGCGCG (Table 1)
Type: physicochemical
condition.description: XCGCGCG; difference from core duplex
Below, each entry is listed with its recorded ΔΔG stacking.
readout: ΔΔG stacking

1) OC[C@H]1OC(c2ccc(F)cc2)C[C@@H]1O (some centres unmarked)	2.0
2) OC[C@H]1O[C@@H](c2cc(F)c(F)c(F)c2F)C[C@@H]1O	2.2
3) OC[C@H]1O[C@@H](c2c(F)c(F)c(F)c(F)c2F)C[C@@H]1O	0.5
4) OCC1OC(c2cc(F)c(F)cc2F)CC1O (centres unmarked)	2.0
5) OC[C@H]1O[C@@H](c2c(F)cc(F)cc2F)C[C@@H]1O	0.4
